FYI, the data here is from PubChem BioAssay (NCI).

Test system: NCI-H226 lung
Assay: NCI-60 one-dose screen, 48 h
Settings: 10 µM unless noted
Compounds without any hit were thinned out: in the full panel of roughly 83,000, 20% have a hit. The source made the active and inactive calls. How the source made its calls: active means growth percent below 10; inactive means the rest.
Please answer using one outcome listed in active, inactive

Here are 5 molecules together with their reported answers.
COc1ccc(-c2ccc3c(N4CCOC[C@@H]4C)nc(N4CCOC[C@@H]4C)nc3n2)cc1CO | active
O=C(CNc1nc2ccccc2s1)Nc1ccc(-c2nc3ccccc3s2)cc1 | inactive
CC(C)(C)C(=O)OCOP(=O)(OCOC(=O)C(C)(C)C)C1CCCN(OC(=O)c2ccccc2)C1=O (centres undefined) | inactive
NC(=O)Nc1cc(-c2cccc(F)c2)sc1C(=O)N[C@H]1CCCNC1 | active
CC(=O)c1cnc2ccc(-c3cc(Cl)c(O)c(Cl)c3)nc2c1NC1CCC(CN(C)C)CC1 (centres undefined) | active

Qu. Assay outcome for COc1cc2c(c(OC)c1)C1c3ccccc3NC(=O)N1CC2 (centres undefined) : what was it?
Ans. inactive

Qu. Then `CCN1CCN(Cc2ccc(NC(=O)Nc3nc(-c4cc(OC)c(OC)c(OC)c4)cs3)cc2C(F)(F)F)CC1` ?
Ans. inactive

Qu. Please do the same for `CO[C@H]1C[C@@H]2CC[C@@H](C)[C@@](O)(O2)C(=O)C(=O)N2CCCC[C@H]2C(=O)O[C@H]([C@H](C)C[C@@H]2CC[C@@H](O)[C@H](OC)C2)CC(=O)[C@H](C)/C=C(\C)[C@@H](O)[C@@H](OC)C(=O)[C@H](C)C[C@H](C)\C=C/C=C/C=C/1C` as well.
Ans. inactive

Qu. Entry to check: `N[C@@H]1CCCN(c2c(/C=C3\SC(=O)NC3=O)cccc2-c2ccccc2)C1`
Ans. inactive
